# MEASUREMENT DESCRIPTION: Toxicity liver stage against HepG2, at 10uM
# Type: cell-based
# Parameters: test concentration 10 uM, cell line HepG2-A16-CD81EGFP
# TEST CONDITIONS: human, HepG2-A16-CD81EGFP cells; read-out: INHIBITION

# COMPOUND, cytotoxicity at 10 µM, %
measured = [
    ("N[C@H]1CN(C(=O)CCCc2ccc(F)cc2)C[C@@H]1C1CC1", -2.45),
    ("Cc1ccc(CN2CCOC3(CCN(CC4CCOC4)CC3)C2)cc1 (stereo unspecified)", -117),
    ("Cc1nc(CN(C)C2CCN(Cc3ccno3)C2)no1 (stereo unspecified)", 2.07),
    ("Cn1cnc2c1CCN(CC(=O)NC1CCCCNC1=O)C2 (stereo unspecified)", -5.97),
    ("CN(C(=O)CN1CCCC1=O)C1CCCN(C2Cc3ccccc3C2)C1 (stereo unspecified)", 0.024),
    ("COc1ccccc1OCC(=O)NCc1ncc(C)c(OC)c1C", -6.63),
    ("Cc1cnn(CC2CCCN2CC(=O)Nc2nncs2)c1 (stereo unspecified)", -2.03),
    ("COCC(=O)N1CCC2(CC1)CN(c1ccsc1)C(=O)CO2", -75.6),
    ("CCc1nc(C2CCCN2C(=O)c2ccc3c(c2)nnn3C)no1 (stereo unspecified)", -4.35),
    ("CCOC1CCN(CC(=O)Nc2oc(C)c3c(C)n[nH]c(=O)c23)CC1", -14.4),
    ("CCN1CC2(CC1=O)CN(C(=O)C(C)C)CCN(S(C)(=O)=O)C2 (stereo unspecified)", -4.54),
]

###

# MEASUREMENT DESCRIPTION: Toxicity liver stage against HepG2, at 10uM
# Assay type: cell-based
# Design: test concentration 10 uM, cell line HepG2-A16-CD81EGFP
# TEST CONDITIONS: human, HepG2-A16-CD81EGFP cells; read-out: INHIBITION
# maps each entry to its cytotoxicity at 10 µM

# MOLECULE, cytotoxicity at 10 µM / %
measured = [
    ("CC(C)[C@H]1CN(Cc2ccccn2)C[C@@H]1NC(=O)CC1CCC1", -2.57),
    ("CCc1nccn1CCC(=O)N1CCN(c2ccccc2C)CC1C (centres undefined)", 11),
    ("Cn1ccnc1N1CCN(C(=O)Cc2ccc(Cl)cc2)CC1", 5.73),
    ("O=C1[C@@H]2CCN(Cc3ccoc3)C[C@@H]2OCCN1Cc1cccnc1", -0.671),
    ("Cc1nc(CN2CCN(C(=O)c3sccc3C)CC2)cs1", 0.96),
    ("CC(C)c1cc(C(=O)N(C)C(C)c2nccs2)no1 (centres undefined)", -9.15),
    ("CC(NC(=O)COc1ccccc1I)C1CC1 (centres undefined)", 2.72),
    ("CC(=O)N1CCN(CCNS(=O)(=O)c2cc(F)cc(F)c2)CC1", 7.24),
    ("Cc1nn(-c2ccccn2)c2c1C(c1cnn(C)c1)SCC(=O)N2 (centres undefined)", -44.1),
    ("Cn1cc(CCC(=O)N2C[C@H]3CC[C@@H](C2)N(Cc2ccccn2)C3)cn1", -1.95),
    ("c1ccc(CN2CCC(CNc3ncnc4c3CCNCC4)CC2)cc1", -4.84),
    ("O=C(O)c1ccc2[nH]cc(CN3CCCC3)c2c1", -2.66),
    ("COc1cccc(N2CCC(CNC(=O)CN3CSCC3=O)C2)c1 (centres undefined)", 0.342),
    ("Cn1cc(CN2C[C@@H]3OCCN(CC4CCCC4)[C@@H]3C2)cn1", -163),
    ("CCn1nc2c(cc1=O)CN(Cc1nc(-c3ccco3)no1)CC2", -3.34),
    ("CCOc1ccccc1C(C(=O)O)N(C)Cc1cc(C)[nH]n1 (centres undefined)", 9.34),
    ("COCCCNC(=O)CN(C)C(=O)c1cc2cc(C)ccc2nc1C", -10.2),
    ("COc1ncnc(N)c1CNCCc1ccccc1", -3.15),
    ("Cc1ccc(-c2cc(C)nc(C3CCCN3S(C)(=O)=O)n2)cc1 (centres undefined)", -8.27),
    ("COCCCNC(=O)N1CCC(CNC(=O)c2cnn(C)c2)CC1", -1.3),
    ("Cn1cc(C2CCCN2CC(=O)N(CCC#N)Cc2ccco2)cn1 (centres undefined)", -6.18),
    ("O=C1CC2(CCCCN2C(=O)c2ccncc2)CN1CC1CC1 (centres undefined)", 2.17),
    ("CCc1cnccc1C(=O)NC1CCN(Cc2ccccc2F)CC1", -4.35),
    ("CC(=O)c1cccc(OCCCC(=O)N(C)CC(N)=O)c1", 17.3),
]

###

# maps each entry to its cytotoxicity at 10 µM
# MEASUREMENT DESCRIPTION: Toxicity liver stage against HepG2, at 10uM
# Type: cell-based
# Parameters: test concentration 10 uM, cell line HepG2-A16-CD81EGFP
# TEST CONDITIONS: human, HepG2-A16-CD81EGFP cells; read-out: INHIBITION

# COMPOUND, cytotoxicity at 10 µM (%)
data = [
    ("CCCOC1CCCN(c2ncnc3c2CCN(C(=O)C2CC2)C3)C1 (stereo unspecified)", 4.84),
    ("Cc1noc(COCC(=O)N2CCCCC2c2nccs2)n1 (stereo unspecified)", 6.9),
    ("CC(NCc1cccc(S(=O)(=O)N(C)C)c1)c1cccnc1 (stereo unspecified)", 1.56),
    ("CCN1CCN(C(=O)c2ccnc(N(C)C)c2)CC1", -0.0916),
    ("CS(=O)(=O)NCc1cc(-c2cc(F)cc(F)c2)nc(N2CCCC2)n1", -1.53),
    ("COc1cc2c(cc1OC)S(=O)(=O)N(Cc1cc(C)on1)C2=O", 11.3),
    ("Cc1ncc(CNC(=O)NCc2c(F)cccc2OC(F)F)s1", -4.27),
    ("COc1ccc(S(=O)(=O)NCCC(O)c2cc(C)oc2C)c(C)c1 (stereo unspecified)", -0.165),
    ("O=C(CN1CCCC1c1nc(Cc2ccc(F)cc2)no1)NC1CC1 (stereo unspecified)", 20.6),
    ("CC(C)(N)C(=O)N1CCC(c2nccnc2Oc2cccc(F)c2)CC1", -13.2),
    ("CN(C)C(CNC(=O)c1ncoc1-c1ccccc1)c1ccsc1 (stereo unspecified)", -0.303),
]

###

# MEASUREMENT DESCRIPTION: Toxicity liver stage against HepG2, at 10uM
# Assay type: cell-based
# Parameters: test concentration 10 uM, cell line HepG2-A16-CD81EGFP
# TEST CONDITIONS: human, HepG2-A16-CD81EGFP cells; read-out: INHIBITION
# maps each entry to its cytotoxicity at 10 µM
MEASURE: cytotoxicity at 10 µM (%)

# COMPOUND, TEST VALUE
data = [
    ("COc1cccc(Cn2cc(C3=CCN(CCO)CC3)cn2)c1", -10.2),
    ("O=C([C@@H]1CC[C@@H]2[C@@H](CCN2c2ncccn2)O1)N1CCCO1", 8.79),
    ("Cc1cnn(CC2CCCCN2Cc2nc(-c3ccoc3)no2)c1 (stereo unspecified)", -7.2),
    ("FC(F)(F)c1ccnc(N2CCCCCC2)c1", 3.02),
    ("COCc1cc(CNc2cnn(CC(F)F)c2)ccc1OC", -7.58),
    ("COCCN1CCN(Cc2nccs2)[C@H]2CS(=O)(=O)C[C@H]21", -1.82),
]

###

# maps each entry to its cytotoxicity at 10 µM
# MEASUREMENT DESCRIPTION: Toxicity liver stage against HepG2, at 10uM
# Type: cell-based
# Set-up: test concentration 10 uM, cell line HepG2-A16-CD81EGFP
# TEST CONDITIONS: human, HepG2-A16-CD81EGFP cells; read-out: INHIBITION
MEASURE: cytotoxicity at 10 µM

# COMPOUND, TEST VALUE
measured = [
    ("CCN(CC)C(=O)c1ccn(COc2c(Cl)cccc2Cl)n1", "11.6%"),
    ("Cn1cc(CN2CCc3ncn(C)c3C2COCc2cccnc2)cn1 (stereo unspecified)", "6.86%"),
    ("CCS(=O)(=O)N1C[C@H]2CN(c3cnn(C)c3)C(=O)[C@H]2C1", "-1.19%"),
    ("Cc1ccc(CN2CCOC3(COCCN(Cc4ccncc4)C3)C2)o1 (stereo unspecified)", "-109%"),
    ("COCCN1C[C@@H]2CC[C@H]1CN(C(=O)CCc1c(C)nn(C)c1C)C2", "-8.6%"),
    ("Cc1cc(C(=O)N2CCn3cnc(COCC4CC4)c3C2)no1", "1.85%"),
    ("Cc1cccc(CN2Cc3nccn3CC(CN3CCOCC3)C2)c1 (stereo unspecified)", "-75.2%"),
    ("Cc1cc(-c2ccc(=O)n(C3CCN(S(=O)(=O)N(C)C)CC3)n2)c(C)o1", "6.54%"),
    ("COC(=O)c1ccc(CN2CCN(Cc3nc(C)no3)CC2)s1", "4.07%"),
    ("Cc1ncsc1C(=O)NC1CCN(CC(=O)NCc2ccccc2)CC1", "-4.62%"),
    ("Cc1cc(-c2cc(F)ccc2C(=O)O)nc(C2CCCCN2C(C)C)n1 (stereo unspecified)", "-3.42%"),
]

Source: ChEMBL document CHEMBL4513216
